System: Staphylococcus aureus
PROTOCOL TEXT: Antibacterial activity against Staphylococcus aureus 503 after 24 hrs
Format: functional
MIC values by entry
Express your answer in µg/mL, writing the number without its unit.

What the record says about CC(O)[C@@]12SS[C@]3(C(=O)N1C)[C@@H](O)[C@]1(c4c[nH]c5ccccc45)c4ccccc4N[C@@H]1N3C2=O (some centres undefined) : MIC is 30

What the record says about `CN[C@H](CC(C)C)C(=O)N[C@H]1C(=O)N[C@@H](CC(N)=O)C(=O)N[C@H]2C(=O)N[C@H]3C(=O)N[C@H](C(=O)N[C@H](C(=O)O)c4cc(O)cc(O)c4-c4cc3ccc4O)[C@H](O)c3ccc(c(Cl)c3)Oc3cc2cc(c3O[C@@H]2O[C@H](CO)[C@@H](O)[C@H](O)[C@H]2O[C@H]2C[C@](C)(N)[C@H](O)[C@H](C)O2)Oc2ccc(cc2Cl)[C@H]1O` : MIC is 0.25

What the record says about CC(O)[C@@]12SS[C@]3(C(=O)N1C)[C@@H](O)C1([C@@]45c6ccccc6N[C@@H]4N4C(=O)[C@]6(C(C)O)SS[C@]4(C(=O)N6C)[C@H]5O)c4ccccc4N[C@@H]1N3C2=O (some centres undefined) : MIC is 3

In the following, a different molecule is considered.
What the record says about `CN1C(=O)[C@]23SS[C@H]1C(=O)N2[C@H]1Nc2ccccc2[C@@]1(c1c[nH]c2ccccc12)[C@@H]3O` : MIC is 10
